Here, each record is paired with measured IC50 data.
- tgt: T1, human RANKL protein (human, UniProt O14788 140-317, limits assumed)
- T1 sequence (looked up): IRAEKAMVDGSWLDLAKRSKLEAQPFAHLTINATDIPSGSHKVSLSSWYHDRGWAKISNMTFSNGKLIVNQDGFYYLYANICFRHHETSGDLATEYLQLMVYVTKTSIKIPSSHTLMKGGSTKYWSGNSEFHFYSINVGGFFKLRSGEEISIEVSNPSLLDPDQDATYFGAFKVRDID
- test: competition ELISA: RANKL (0.5 ug/ml) pre-incubated with the antibody, then binding to coated human RANK (8 ug/ml) detected; blocked partner RANK
The answer is to be given in µg/mL; state only the numeric part.

Example binders with recorded IC50:
clone 318 rabbit anti-RANKL antibody (antibody, V domains shown) VH: QDQLKESGGGLVTPGGTLTLTCTASGFSLGSNGMSWVRQAPGKGLEWIGYIYSGSSPYYASWAKGRFTISKTSSTTVDLKMTSLTTEDTATYFCAGHAKGGGWYLDIWGPGTLVTVSL VL: DMTQTPASVSAAVGGTVTINCQASQSIGSNLGWYQQKPGQPPKLLIYGASTLASGVSSRFKGSGSGTHFAFTISDVECTDAATYYCQQAYSVGNVDNAFGGGTEVVVK ... 0.0624
clone 299 rabbit anti-RANKL antibody (antibody, V domains shown) VH: QSLEESGGRLVTPGTPLTLTCTVSGIDLSSSLMTWVRQAPGKGLEWIGYIWSGGAPFYASWAKGRFTISKTSSTTVDLKMTSLTTEDTATYFCAARYTDSGFDALDPWGPGTLVTVSS VL: DMTQTPASVEAAVGGTVTIKCQASQSIGSYLSWYHQKPGQPPKLLIYRASTLASGVPSRFKGSGSGTQFTLTISDLECADAATYYCQQGYSANVDNAFGGGTEVVVK ... 0.0907

We next turn to a different binder, shown below.
Ask | Recall and state the measured IC50 for clone 327 rabbit anti-RANKL antibody (antibody, V domains shown) VH: QSLEESGGRLVTPGTPLTLTCTVSGFSLSKYEINWVRQAPGKGLEWIGYIDVGSGTWYASWAKGRFTISKTSTTVALRITSPTTEDTATYFCSRQYNPMDLWGPGTLVTVSS VL: DMTQTPASVEAAVGGTVTIKCQASQNIGSNLAWYQQKPGQRPKLLIYSASTLASGVPSRFKGSGSGTQFTLTISGVQCDDAATYYCQQGYSVGNVNNAFGGGTEVVVK .
Reply | 0.0416

Data provenance: patent US20160032001A1
